Listed sequences paired with reported apparent KD of MS2 coat protein
System: MS2 coat protein
Assay: apparent KD of MS2 coat protein; designed switch direction (-1 OFF switch, 1 ON switch): -1; higher = weaker reporter binding
Conditions: input ligand: FMN 200 uM
Number plus unit, in that order.

Check out these entries, answers already filled in.
>  <SEQUENCE>
CCUUAGUCACAGGAUAUGCUCAUCUAAUGAUGAGCAGAAGGGUGAACAUGAGGAUCACCCAUGUUUAUCAAGGG [Omei Ex6 E3] (Eterna round: R97, puzzle: Exclusion 6)

>  <STUDY SYSTEM>
MS2 coat protein

>  <apparent KD of MS2 coat protein>
0.3 µM

$$$$
>  <SEQUENCE>
AGAGUGCUGCGAGGAUAUACAUGAGGAUCACCCAUGUGGUCCUGUGAGGCAAAGCCUCACAGGAUGUAGAAGGCGCAGUACUCA [Mat - Exclusion NG 2 - Mod of JL - D46] (Eterna round: R96, puzzle: Exclusion NG 2)

>  <STUDY SYSTEM>
MS2 coat protein

>  <apparent KD of MS2 coat protein>
0.057 µM

$$$$
>  <SEQUENCE>
ACAUUGUAUGUGAGGAUAUCGAUGGGAUGGGUUGUCGAGAAGGCACAUGAGGAUCACCCAUGUAAGGGACAGCA [JR_BMEx4_Sub029] (Eterna round: R97, puzzle: Brourd's mod of Exclusion 4)

>  <STUDY SYSTEM>
MS2 coat protein

>  <apparent KD of MS2 coat protein>
0.295 µM

$$$$
>  <SEQUENCE>
CGCUGGACAGGAUAUGUUCUUGGGCACUUGAGGAUCACCCAAGUCAUCGGGACAUCAGGCACAGAAGGGUUGUUGG [salish99_ex5_r4_028] (Eterna round: R97, puzzle: Exclusion 5)

>  <STUDY SYSTEM>
MS2 coat protein

>  <apparent KD of MS2 coat protein>
0.0255 µM

$$$$
>  <SEQUENCE>
CCGCUACAUGAGGAUCACCCAUGUCAGGAUAUCGUACGUUCGUCGAUAGACGAUCGUACGAGAAGGGUGAGCGG [Mat - Exclusion 1 - Eli Mod - D37] (Eterna round: R97, puzzle: Exclusion 1)

>  <STUDY SYSTEM>
MS2 coat protein

>  <apparent KD of MS2 coat protein>
0.156 µM

$$$$
>  <SEQUENCE>
AAGCAGUCAGGAUAUCGUUAAUUUAGUUGUUUGUAUUAGUUCGAGAAGGGACAUGAGGAUCACCCAUGUAUGAA [Ex4 #42] (Eterna round: R97, puzzle: Exclusion 4)

>  <STUDY SYSTEM>
MS2 coat protein

>  <apparent KD of MS2 coat protein>
0.0515 µM

$$$$
>  <SEQUENCE>
ACCUCUGAGGAGGAUAUACAGUGCGAAAGGACAGUAGAAGGCUUCACAUGAGGAUCACCCAUGUCGAAAAGUGA [EX6 #80] (Eterna round: R97, puzzle: Exclusion 6)

>  <STUDY SYSTEM>
MS2 coat protein

>  <apparent KD of MS2 coat protein>
0.127 µM

$$$$
>  <SEQUENCE>
ACUUUUAGUGGUCAAACUCACAUGAGGAUCACCCAUGUUUACAGGCUUAGGUGCUUGUCUUAUACUAAGGUUUACCG [Eternabot (L1) Solution 44] (Eterna round: R97, puzzle: Sensor, turn-off variant 1)

>  <STUDY SYSTEM>
MS2 coat protein

>  <apparent KD of MS2 coat protein>
0.0969 µM

$$$$

# next sequence below
Assay MS2 coat protein, sample ACAUGAGGAUCACCCAUGUCAGGUGGGUCCUCUCCGGCUGUUGAGGAUAUAGUCCGGUAUCCGCGCUAGAAGGUGAGGGCCGGC [Aenatbe mod 17] (Eterna round: R96, puzzle: Exclusion NG 3) , apparent KD of MS2 coat protein read: 0.0298 µM

====

System: MS2 coat protein
Experiment: apparent KD of MS2 coat protein; designed switch direction (-1 OFF switch, 1 ON switch): -1; higher = weaker reporter binding
Conditions: input ligand: microRNA oligo, concentration not stated
apparent KD of MS2 coat protein vs 30 nM: at or above is MET, below is NOT MET.

>  <SEQUENCE>
AACCUGAGGCUUUGCUUUAGGUGUACAUGAGGAUCACCCAUGUAGGAUAUGGUAGGCAAAGCUUACCAGAAGGACAUGUUAAUU [Mat - Exclusion NG 3 - Mod of JL - D37] (Eterna round: R96, puzzle: Exclusion NG 3)

>  <CLASS>
MET

$$$$
>  <SEQUENCE>
UGUCAGAUGGUAGGAUAUUCAUAUCGAGUGACCCUUUCAUAACAUGAGGAUCACCCAUGUCGGUGGGAGAAGGGCCGUAUGGUG [salish99_ExNG02_R04_030] (Eterna round: R96, puzzle: Exclusion NG 2)

>  <CLASS>
NOT MET

$$$$
>  <SEQUENCE>
ACAUGAGGAUCACCCAUGUCUGGCUGGUCCGUCUCGGCUGUCGAGGAUAUGGCUCGGUGUCCGCGCUAGAAGGCGGGAGCUGGU [Aenatbe mod 79] (Eterna round: R96, puzzle: Exclusion NG 3)

>  <CLASS>
MET

$$$$
>  <SEQUENCE>
GACUAAACACGAGGAUAUGCCUGGGAAGAACAGGCAGAAGGCGUGACAUGAGGAUCACCCAUGUAGCCGGGCUAUUCUCGUACG [Tirearerar] (Eterna round: R96, puzzle: Exclusion NG 1)

>  <CLASS>
NOT MET

$$$$
>  <SEQUENCE>
ACUUAUAGAGGAUAUACAGAAUAUUACAUGAGGAUCACCCAUGUUCUUCAAUGUAUAUUUGUAGAAGGCUAAGGAA [EX-5 Malc#7] (Eterna round: R96, puzzle: Exclusion 5)

>  <CLASS>
MET

$$$$

Query: Reported apparent KD of MS2 coat protein at or above 30 nM? ACAUGAGGAUCACCCAUGUCCGUCUGAUCUGUCUCGGCUGUCGAGGAUAUAGCCCGGUAUCCGCGCUAGAAGGUGGGAGUCGGA [Aenatbe mod 100] (Eterna round: R96, puzzle: Exclusion NG 3)
Result: MET

Query: Kindly determine if apparent KD of MS2 coat protein recorded for GGUCGCAGGACAGGAUAUCCAAGCGAUCUAACAUGAGGAUCACCCAUGUGCUAAGGCAGAGGGACGGAGAAGGGUCGAUCGGCC [Inqusodire] (Eterna round: R96, puzzle: Exclusion NG 2) is above or exactly 30 nM.
Result: MET

Query: API: above_or_equal(metric=apparent KD of MS2 coat protein, cutoff=30 nM) for item GUCGUGCGGCUUUGCUGUGCGGGUACAUGAGGAUCACCCAUGUAGGAUAUGGUACGCUUUGCGUGCCAGAAGGGCGUGCGUUGG [salish99_ExNG3_r04_008] (Eterna round: R96, puzzle: Exclusion NG 3)
Result: NOT MET

Query: // inclusive: apparent KD of MS2 coat protein at least 30 nM? input: UACAUGAGGAUCACCCAUGUUUUGUCGUGUAUGGUAUUUAUCUAGGAUAUCAAUGUAUUAAUUUAUGAGAAGGAGAAUAUUAAU [JMF's solution 44] (Eterna round: R96, puzzle: Exclusion NG 3)
Result: NOT MET

Query: Check if apparent KD of MS2 coat protein >= 30 nM (inclusive). Item: GCACGGAGUGUAGGAUAUUAGUGCGAUUAGCACUGAGAAGGACAUGAGGAUCACCCAUGUUCCUCAAUAACAUACCUUCCGUGC [Eli exng1 - 042] (Eterna round: R96, puzzle: Exclusion NG 1)
Result: NOT MET

====

Test system: MS2 coat protein
Experiment: apparent KD of MS2 coat protein; designed switch direction (-1 OFF switch, 1 ON switch): -1; higher = weaker reporter binding
Details: input ligand: microRNA oligo, concentration not stated
Would you mind labelling by apparent KD of MS2 coat protein? At or over 70 nM is Criterion met, under is Criterion not met.

These solved cases illustrate the format of a correct answer.
>  <SEQUENCE>
AAGAAGAAGUAAGGAUAUGAAGAUUUGGUGAUAACAUGAGGAUCACCCAUGUGAAAACAAUAAAAUCAGAAGGUAUAAGAAGAA [AK ExNG2-2] (Eterna round: R96, puzzle: Exclusion NG 2)

>  <CLASS>
Criterion not met

$$$$
>  <SEQUENCE>
CUGAACCCGGUAGGAUAUAUUGUGGGCAAGCGUGGAACGACAUGAGGAUCACCCAUGUAAUUUAGGUAGAAGGGCCGAGAGAUU [Excl-NG2-LRO12] (Eterna round: R96, puzzle: Exclusion NG 2)

>  <CLASS>
Criterion not met

$$$$
>  <SEQUENCE>
UAUUCUAGAUAGGAUAUACUUUUUUUUUUUUUCGUAGAAGGAUCUACAUGAGGAUCACCCAUGUUUUCAGCAGU [JR_E6_Sub012] (Eterna round: R96, puzzle: Exclusion 6)

>  <CLASS>
Criterion not met

$$$$
>  <SEQUENCE>
AGUCGGAAGACAAAAGGAAACAUGAGGAUCACCCAUGUAAAGGGUGAAAACAAGCCACCCGCUCGUCUUAAAGAAAA [Mat - Sensor v2- JL mod - D44] (Eterna round: R96, puzzle: Sensor v2, turn-off variant)

>  <CLASS>
Criterion met

$$$$

Query: Identify whether the reported apparent KD of MS2 coat protein of the following sequence is 70 nM or greater: UUAAUUAAUUAAGCGCAAGAUCACAUGAGGAUCACCCAUGUAUAGGAUAUCAGCUCGUUUAGAGCUGAGAAGGAUACAUAGCGC [ExNG3/2-A2] (Eterna round: R96, puzzle: Exclusion NG 3)
Result: Criterion met
